# System: HeLa
# protocol notes: Downregulation of EXT2 protein expression in human HeLa cells at 20 uM incubated for 24 hrs by western blot analysis
# Assay type: functional, cell-based
Activity calls are given as the source filed them. The calls are words filed in the database; no cut-off is given here.
Form entry, call: pick from yes (1) for active, no (0) for inactive

Q: What did the test return for Cl.OC[C@@H]1NC[C@@H](O)[C@H](O)[C@H]1O ?
Ans: yes (1)

Q: What did the test return for Cl.OC[C@H]1[C@H](O)[C@@H](O)[C@H](O)CN1CCCCCOCC12CC3CC(CC(C3)C1)C2 ?
Ans: no (0)

Q: What did the test return for COCCCCCCCCCN1C[C@@H](O)[C@H](O)[C@@H](O)[C@@H]1CO.Cl ?
Ans: no (0)

Q: What did the test return for CCCCN1C[C@@H](O)[C@H](O)[C@@H](O)[C@@H]1CO.Cl ?
Ans: yes (1)

====

# Tested on: Fibroblast
# protocol notes: Inhibition of heparan sulfate accumulation on cell membrane in MPS-1 patient derived human fibroblast cells at 40 uM incubated for 48 hrs by indirect immunofluorescence staining analysis
# Assay type: functional, cell-based
Calls of active or inactive are those of the source. The rule behind the calls is not given here.
quantity: inhibition

{"smiles repr": "Cl.OC[C@H]1[C@H](O)[C@@H](O)[C@H](O)CN1CCCCCOCC12CC3CC(CC(C3)C1)C2", "quantity": "inhibition", "experimental value": "Active"}
{"smiles repr": "Cl.OC[C@@H]1NC[C@@H](O)[C@H](O)[C@H]1O", "quantity": "inhibition", "experimental value": "Active"}
{"smiles repr": "COCCCCCCCCCN1C[C@@H](O)[C@H](O)[C@@H](O)[C@@H]1CO.Cl", "quantity": "inhibition", "experimental value": "Active"}
{"smiles repr": "CCCCN1C[C@@H](O)[C@H](O)[C@@H](O)[C@@H]1CO.Cl", "quantity": "inhibition", "experimental value": "Active"}

====

# System: Fibroblast
# protocol notes: Inhibition of lysosomal defects in Sanfilippo-B patient derived human fibroblast cells assessed as reduction in accumulation of enlarged LAMP1-positive lysosomal structures within the cytoplasm at 20 uM incubated for 48 hrs by LAMP1 staining based indirect immunofluorescence assay
# Assay type: functional, cell-based
Calls of active or inactive are those of the source. No cut-off for these calls is given here.
Form entry, call: pick from Y = active, N = inactive

{"smiles repr": "CCCCCCCCCOCCCCCN1C[C@@H](O)[C@H](O)[C@@H](O)[C@@H]1CO.Cl", "target system": "Fibroblast", "assigned class": "N"}

Q: What did the test return for CCCCN1C[C@@H](O)[C@H](O)[C@@H](O)[C@@H]1CO.Cl ?
Ans: Y

Q: What did the test return for CCCCN1C[C@H](O)[C@@H](O)[C@H](O)[C@H]1CO ?
Ans: N

Q: What did the test return for COCCCCCCCCCN1C[C@@H](O)[C@H](O)[C@@H](O)[C@@H]1CO.Cl ?
Ans: Y

Q: What did the test return for Cl.OC[C@H]1[C@H](O)[C@@H](O)[C@H](O)CN1CCCCCOCC12CC3CC(CC(C3)C1)C2 ?
Ans: Y

====

# Test system: IB3-1
# protocol notes: Antiproliferative activity against human IB3-1 cells upto 100 uM
# Format: toxicity, cell-based
# condition details: ib3-1, 100 µM
quantity: Activity

Here is how some compounds turned out for Activity.
{"smiles repr": "Cl.OC[C@H]1[C@H](O)[C@@H](O)[C@H](O)CN1CCCCCOCC12CC3CC(CC(C3)C1)C2", "target system": "IB3-1", "experimental value": "Non-Toxic"}
{"smiles repr": "CCCCCCCCCN1C[C@@H](O)[C@H](O)[C@@H](O)[C@@H]1CO.Cl", "target system": "IB3-1", "experimental value": "Non-Toxic"}
{"smiles repr": "Cl.OC[C@@H]1NC[C@@H](O)[C@H](O)[C@H]1O", "target system": "IB3-1", "experimental value": "Non-Toxic"}
{"smiles repr": "CCCCCCOCCCCCN1C[C@@H](O)[C@H](O)[C@@H](O)[C@@H]1CO.Cl", "target system": "IB3-1", "experimental value": "Non-Toxic"}

Briefly, Activity measured for CCCCCCCCCOCCCCCN1C[C@@H](O)[C@H](O)[C@@H](O)[C@@H]1CO.Cl : Non-Toxic

Briefly, Activity measured for CCCCN1C[C@@H](O)[C@H](O)[C@@H](O)[C@@H]1CO.Cl : Non-Toxic

Briefly, Activity measured for COCCCCCCCCCN1C[C@@H](O)[C@H](O)[C@@H](O)[C@@H]1CO.Cl : Non-Toxic
